- System: HT-29
- assayOverview: NCI tumour cell line growth inhibition, 48 h
Activity calls are given as the source filed them. Cut-off read from the data, not from the text of the source: active = GI50 up to about 1.1 µM and inactive = higher.
measuredQuantity: GI50

// worked examples, GI50 included
• CN1C/C(=C\C=C\c2ccccc2)C(=O)/C(=C/C=C/c2ccccc2)C1 = > 100 µM (inactive)
• O=C1N[C@@H]([C@H]2CC[C@H](Cl)CN2)C(=O)N[C@H]1[C@H]1CC[C@H](Cl)CN1 = 1.83 µM (inactive)
• C=C[C@@]1(C)CCC2(O)C(CCC3C2(C)CCC[C@@]3(C)COC(=O)CC(=O)OC)C1 (some centres not stated) = 18.9 µM (inactive)

Exercise: Consider the compound O=C1c2ccccc2CCC1C(O)(C(F)(F)F)C(F)(F)F (configuration not stated) and give its measured GI50.
Key: > 100 µM (inactive)

Exercise: // returns reported GI50 for input Nc1c(C(=O)Nc2ccc([As](=O)(O)O)cc2)cnc2nnnn12
Key: > 100 µM (inactive)

Exercise: Given the compound O=C(/C=C/c1ccccc1)Nc1ccccc1SCCCCl , what is its reported GI50?
Key: 7.94 µM (inactive)

Exercise: Suppose we examine the compound CCOC(=O)C/C(N)=C(\C#N)C(=O)OCC ; what GI50 value has been reported?
Key: > 100 µM (inactive)

Exercise: GI50 for Cc1cccc2c3ccc4c(c3n(C)c12)C(=O)C=CC4=O ?
Key: > 100 µM (inactive)

Exercise: Consider the compound shown here: Cn1ccc2c(c1=O)C(=O)OC2(C)C What is its recorded GI50?
Key: > 100 µM (inactive)
